These measurements were taken from patent US9296741B2.

- test summary: Mouse liver microsome stability assay
- Type: in vitro ADME
- details: male, CD1, mouse, microsomes, pH 7.4
reported property: half-life at 0.5 μM (min)
Give the number; min is assumed, so skip it.

For this compound ( Cn1cc(-c2cc(S(C)(=O)=O)ccc2Oc2cccc(N)c2)c2cc[nH]c2c1=O ), measured half-life at 0.5 μM is 22

Cn1cc(-c2cc(NS(C)(=O)=O)ccc2Oc2c(F)cc(F)cc2F)c2cc[nH]c2c1=O has a reported half-life at 0.5 μM of 46

---
Summary for this compound, CN(C)c1ccc(NC(=O)c2ccc(Oc3ccc(F)cc3F)c(-c3cn(C)c(=O)c4[nH]ccc34)c2)cc1 : half-life at 0.5 μM is 10

Measured half-life at 0.5 μM of Cn1cc(-c2cc(NS(=O)(=O)CCF)ccc2OC2CCOC2)c2cc[nH]c2c1=O (stereo not shown) : 7

// half-life at 0.5 μM lookup, compound = CCS(=O)(=O)c1ccc(OCC2CC2)c(-c2nn(C)c(=O)c3[nH]ccc23)c1 , result: 68

Lab book: half-life at 0.5 μM of Cn1cc(-c2cc(S(C)(=O)=O)ccc2OCC2C[C@@H]3CC[C@H]2C3)c2cc[nH]c2c1=O (stereo partly shown) noted as 7

Reported half-life at 0.5 μM of CCOC(=O)N1CCC(Oc2ccc(S(C)(=O)=O)cc2-c2cn(C)c(=O)c3[nH]ccc23)CC1 : 69.8
